These measurements were taken from PubChem BioAssay (EPA / NIEHS).

target: Luciferin 4-monooxygenase (Photinus pyralis) (UniProt P08659); assay: CCTE_Simmons_QuantiLum_inhib_2: CCTE's Firefly Luciferase Inhibition Assay, Simmons Lab (AID 2283767)
Sequence (P08659 whole entry, looked up): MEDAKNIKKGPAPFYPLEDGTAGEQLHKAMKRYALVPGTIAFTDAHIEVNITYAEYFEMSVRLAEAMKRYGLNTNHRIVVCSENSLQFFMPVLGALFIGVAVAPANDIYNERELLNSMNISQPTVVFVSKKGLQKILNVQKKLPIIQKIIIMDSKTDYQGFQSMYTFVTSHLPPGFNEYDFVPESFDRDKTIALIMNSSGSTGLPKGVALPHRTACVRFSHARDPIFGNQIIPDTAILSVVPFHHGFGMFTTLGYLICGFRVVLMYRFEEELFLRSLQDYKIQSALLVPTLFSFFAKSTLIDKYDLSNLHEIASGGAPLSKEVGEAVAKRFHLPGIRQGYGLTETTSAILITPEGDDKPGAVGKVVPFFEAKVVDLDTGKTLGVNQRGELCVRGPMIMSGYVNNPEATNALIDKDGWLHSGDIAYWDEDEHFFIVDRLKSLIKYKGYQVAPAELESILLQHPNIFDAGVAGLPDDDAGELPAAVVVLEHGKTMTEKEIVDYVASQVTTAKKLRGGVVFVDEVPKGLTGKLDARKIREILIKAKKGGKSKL
Records with an inconclusive call do not appear. Calls of active or inactive are those of the source. Rule for the calls: active = hit-call score of the fitted dose curve at least 0.9, where 1 is the maximum; inconclusive = response in the unintended direction; inactive = score below 0.9.
Labels: active, inactive

{"smiles repr": "CN1CSC(=S)N(C)C1", "qualitative label": "active"}
{"smiles repr": "COP(=S)(OC)Oc1ccc(SC)c(C)c1", "qualitative label": "inactive"}
{"smiles repr": "O=C1c2ccccc2C(=O)N1SC(Cl)(Cl)Cl", "qualitative label": "inactive"}
{"smiles repr": "CNC(=O)/C=C(\\C)OP(=O)(OC)OC", "qualitative label": "inactive"}

----------
read-out: Cytochrome P450 3A7 (Homo sapiens) (UniProt P24462); assay: LTEA_HepaRG_CYP3A7: Life Technologies and Expression Analysis (LTEA) Assay for CYP3A7 using HepaRG (AID 2283492); details: mRNA level, 48 h; actives raise or lower the signal
Sequence (P24462 whole entry, looked up): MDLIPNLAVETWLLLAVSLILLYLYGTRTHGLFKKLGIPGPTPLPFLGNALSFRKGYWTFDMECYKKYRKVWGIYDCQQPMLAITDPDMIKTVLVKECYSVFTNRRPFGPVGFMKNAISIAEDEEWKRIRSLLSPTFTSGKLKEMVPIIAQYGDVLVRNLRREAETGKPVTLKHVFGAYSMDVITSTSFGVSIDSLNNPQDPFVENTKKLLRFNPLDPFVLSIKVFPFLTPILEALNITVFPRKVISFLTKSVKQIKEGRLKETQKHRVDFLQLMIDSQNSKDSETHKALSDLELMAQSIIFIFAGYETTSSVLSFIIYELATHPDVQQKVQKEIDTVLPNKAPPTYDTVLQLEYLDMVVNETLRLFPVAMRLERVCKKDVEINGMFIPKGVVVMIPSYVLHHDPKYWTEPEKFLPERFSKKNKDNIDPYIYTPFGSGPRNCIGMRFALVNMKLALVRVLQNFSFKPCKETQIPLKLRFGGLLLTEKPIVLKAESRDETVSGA
The source made the active and inactive calls. How the source made its calls: active means hit-call score of the fitted dose curve at least 0.9, where 1 is the maximum; inactive means score below 0.9.
Labels: y (active), n (inactive)

{"smiles repr": "COc1nn(CSP(=S)(OC)OC)c(=O)s1", "qualitative label": "n"}
{"smiles repr": "CCC(C)(C)C(=O)OC1=C(c2ccc(Cl)cc2Cl)C(=O)OC12CCCCC2", "qualitative label": "y"}
{"smiles repr": "CN1CSC(=S)N(C)C1", "qualitative label": "n"}

----------
read-out: solute carrier (SLCO1B1), SLCO1B1 (gene 10599); assay: LTEA_HepaRG_SLCO1B1: Life Technologies and Expression Analysis (LTEA) Assay for solute carrier (SLCO1B1) using HepaRG (AID 2283530); conditions: mRNA level, 48 h; actives raise or lower the signal
Active and inactive are the calls of the source. How the source made its calls: active means hit-call score of the fitted dose curve at least 0.9, where 1 is the maximum; inactive means score below 0.9.
Labels: active, inactive

{"molecule": "COP(=S)(OC)Oc1ccc([N+](=O)[O-])cc1", "qualitative label": "inactive"}
{"molecule": "CCCN(CCOc1c(Cl)cc(Cl)cc1Cl)C(=O)n1ccnc1", "qualitative label": "active"}
{"molecule": "Clc1ccccc1-c1nnc(-c2ccccc2Cl)nn1", "qualitative label": "inactive"}
{"molecule": "CNC(=O)Oc1ccccc1OC(C)C", "qualitative label": "inactive"}
{"molecule": "CC1(C)C(C=C(Cl)Cl)C1C(=O)OC(C#N)c1ccc(F)c(Oc2ccccc2)c1 (stereo unspecified)", "qualitative label": "inactive"}
{"molecule": "CC1(c2ccc(Oc3ccccc3)cc2)OC(=O)N(Nc2ccccc2)C1=O (stereo unspecified)", "qualitative label": "active"}
{"molecule": "Cc1[nH]c(=O)n(C(C)(C)C)c(=O)c1Cl", "qualitative label": "inactive"}
{"molecule": "COP(=O)(OC)OC=C(Cl)Cl", "qualitative label": "inactive"}
{"molecule": "CCN(CC)C(=O)SCc1ccc(Cl)cc1", "qualitative label": "inactive"}
{"molecule": "CCOCN(C(=O)CCl)c1c(C)cccc1CC", "qualitative label": "active"}
{"molecule": "CN1CSC(=S)N(C)C1", "qualitative label": "inactive"}

----------
read-out: CD38, CD38 (gene 952); assay: BSK_SAg_CD38: BioMAP Diversity Plus: SAg Assay for CD38 Biomarker Activity (AID 2283087); details: primary human HUVEC with PBMC; actives raise or lower the signal
The source made the active and inactive calls. Rule for the calls: active = hit-call score of the fitted dose curve at least 0.9, where 1 is the maximum; inactive = score below 0.9.

{"compound": "O=[N+]([O-])c1c(Cl)c(Cl)c(Cl)c(Cl)c1Cl", "AC50": "inactive"}
{"compound": "CCN(CC)C(=O)SCc1ccc(Cl)cc1", "AC50": "inactive"}
{"compound": "COC(=O)c1ccccc1S(=O)(=O)NC(=O)Nc1nc(C)nc(OC)n1", "AC50": "inactive"}
{"compound": "CNC(=O)/C=C(\\C)OP(=O)(OC)OC", "AC50": "inactive"}
{"compound": "O=C1c2ccccc2C(=O)N1SC(Cl)(Cl)Cl", "AC50": "inactive"}
{"compound": "CCCN(CCC)c1c([N+](=O)[O-])cc(C(F)(F)F)cc1[N+](=O)[O-]", "AC50": "15.2 µM (active)"}
{"compound": "CCC(C)(NC(=O)c1cc(Cl)c(C)c(Cl)c1)C(=O)CCl (configuration not stated)", "AC50": "6.39 µM (active)"}
